Where these numbers come from: PubChem BioAssay (NCI)

- System: A498 renal
- protocol_text: NCI tumour cell line growth inhibition, 48 h
reported_endpoint: TGI

Ask: Please supply the value of reported TGI for the item Cc1cc(C)c(NS(=O)c2ccc(Cl)cc2)c(C)c1 (stereo not drawn)
Reply: > 100 µM

Ask: Look up and report measured TGI for this entry: CC(C)n1cc(-c2ccc3c(c2)N(C)CC3)c2c(NS(=O)(=O)c3ccn(C)n3)ccnc21
Reply: > 100 µM

Ask: # return recorded TGI for entry COc1ccc2c(O)c1-c1c(OC)ccc(c1O)SSc1ccc(OC)c(c1O)-c1c(OC)ccc(c1O)SS2
Reply: > 100 µM

Ask: Return value of TGI for input CC(C)=CCC/C(C)=C/Cc1c2c(c3oc(-c4ccc(O)c(O)c4)c(O)c(=O)c3c1O)C=CC(C)(C)O2 , no commentary.
Reply: 12.9 µM

Ask: Complete the entry with TGI for N#Cc1c(C#N)c(SSc2c(C#N)c(C#N)c(N)n2-c2cccc3ccccc23)n(-c2cccc3ccccc23)c1N
Reply: > 63.6 µM

Ask: Consider the compound COc1ccc2c(c1)OCC1c3cc(OC)c4ccccc4c3OC21 (stereo not drawn) . State its measured TGI.
Reply: > 100 µM

Ask: Name the recorded TGI of the item Cc1nc2ccc(-n3ncc(C(=O)c4cc5ccccc5[nH]4)c3N)cc2[nH]1 in your answer.
Reply: 54.3 µM

Ask: Please list TGI recorded for the compound CS(=O)(=O)N1CCC(Nc2ncc(C(=O)c3c(F)cccc3F)c(N)n2)CC1
Reply: > 25 µM

Ask: Using known records, supply TGI for O=C(CCN1CCCCC1)c1csc2ccccc12
Reply: > 100 µM

Ask: Specify measured TGI for COc1ccccc1CNCCCN1C(=O)c2ccc3c4c(ccc(c24)C1=O)C(=O)N(CCCNCCCCNCCCN)C3=O .
Reply: 3.14 µM

Ask: Specify TGI for CC(=O)Oc1ccc2c(=O)c(C(C)=O)coc2c1 and stop.
Reply: > 100 µM

Ask: Please report TGI for the following compound: CCOC(=O)C1=C(C)NC2SC(=O)/C(=C\c3cccc(Cl)c3)N2C1c1ccccc1 (stereo not drawn)
Reply: > 100 µM

Ask: Tell me measured TGI for CCOC(=O)c1ccc(N=C2Sc3nc4ccccc4n3C2=Nc2ccc(C(=O)OCC)cc2)cc1 please.
Reply: 81.4 µM

Ask: Return value of TGI for input Nc1[nH]c(=O)nc2c1cnn2COCCO , no commentary.
Reply: > 100 µM

Ask: Determine its reported TGI: C/C(=C\[Si](C)(C)c1ccco1)C(C)(O)[C@H](C)O (stereo partly drawn)
Reply: > 100 µM

Ask: Supply TGI value. Item: O=C(/C=C(/C=C/c1cccc2[nH]ccc12)OB(F)F)/C=C/c1cccc2[nH]ccc12
Reply: 3.42 µM

Ask: Quickly give me recorded TGI for O=C(c1ccccc1)n1cc(/C=C/[N+](=O)[O-])c2ccccc21
Reply: > 100 µM

Ask: Answer with the recorded TGI for the compound listed here: NS(=O)(=O)c1ccc(N=Nc2c(O)[nH]c3ccc(C(=O)NCCCn4ccnc4)cc23)cc1
Reply: > 25 µM

Ask: Return TGI for the following compound: Cc1ccc(C(=O)NC2C(=O)NC(C(C)C)C(=O)N3CCCC3C(=O)N(C)CC(=O)N(C)C(C(C)C)C(=O)OC2C)c2c1Oc1c(c(C(=O)NC3C(=O)NC(C(C)C)C(=O)N4CCCC4C(=O)N(C)CC(=O)N(C)C(C(C)C)C(=O)OC3C)c3nc(-c4ccccc4)c(=O)oc3c1C)N2 (stereo not drawn)
Reply: 0.00273 µM

Ask: Fill in reported TGI for this entry: COc1ccc(/C=C2/SC(=Nc3ccccc3)N(NC(=O)Cc3ccccc3)C2=O)cc1
Reply: > 100 µM

Ask: # return recorded TGI for input COc1ccc(COCC[C@H](C)OC2OC(CO[Si](C)(C)C(C)(C)C)C(O)C(O)C2O)cc1 (stereo partly drawn)
Reply: > 100 µM

Ask: Look up and report measured TGI for this entry: C=C1N(C)c2ccc(S(=O)(=O)c3ccc4c(c3)C(C)(C)C(=C)N4C)cc2C1(C)C
Reply: > 100 µM

Ask: Dear colleague, please send me the reported TGI for CCCCC/C=C\C=C\CCCCCCCCC(=O)OC when you can.
Reply: > 100 µM

Ask: Tell me its TGI given COC(=O)C(=O)C(C(=O)OC)C(=O)C(=O)Nc1cc(Cl)c(C)cc1S(=O)(=O)O (stereo not drawn) as the entry.
Reply: > 100 µM

Ask: Supply reported TGI belonging to this compound: CC(C)N(CC(=O)O)CC(=O)O
Reply: > 100 µM

Ask: Supply recorded TGI for C=CC(C)(C)NC(C(=O)N1CCC[C@H]1c1nc(-c2nc(C(=O)OCC=C(C)C)c(C)o2)c(C)o1)C(C)C (stereo partly drawn) here.
Reply: > 100 µM

Ask: Provide only the value of recorded TGI for CN(C)c1n2c3ccc([N+](=O)[O-])cc3n3c(N(C)C)[n+]4ccccc4c3c2c2cccc[n+]12
Reply: > 100 µM

Ask: Identify the reported TGI for the following entry. CC1(C)N=C(N)N=C(N)N1c1ccc(OCC(=O)Nc2ccc(S(=O)(=O)F)cc2Cl)c(Cl)c1
Reply: > 100 µM
